These data points were gathered from paper PMC9482650.

Target: DLG1_2, Q12959
Sequence (Q12959 314-412): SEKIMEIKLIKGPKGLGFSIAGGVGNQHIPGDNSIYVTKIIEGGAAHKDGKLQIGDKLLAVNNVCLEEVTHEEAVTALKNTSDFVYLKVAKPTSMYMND
Experiment: holdup assay
Set-up: key: below the threshold = too weak to quantify, mostly under pKd 3.1 to 4
Conditions: plain residues with an end cap or a label only (N-terminal biotin on a linker: ado-ado)
The following binders are shown together with reported pKd values.
# output: bare number, no unit

• TNSKQGETTV [FZD1, Q9UP38] = 5.09

Query binder follows.
Return reported pKd; argument: KKTPVSRSHL [SLC22A3, O75751]
3.52
